tested on: UACC-62 (Melanoma); experiment: Bliss excess, mean over the matrix (fraction); higher = more synergy;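 further: after 72 h of two-drug dosing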
measure: Bliss excess

molecule	target	measure	measurement
CC1(C)CCC(CN2CCN(c3ccc(C(=O)NS(=O)(=O)c4ccc(NCC5CCOCC5)c([N+](=O)[O-])c4)c(Oc4cnc5[nH]ccc5c4)c3)CC2)=C(c2ccc(Cl)cc2)C1 [Venetoclax] + Cn1cnc2c(F)c(Nc3ccc(Br)cc3Cl)c(C(=O)NOCCO)cc21 [Selumetinib] (first compound max 1 µM, 7x7, partner max 3 µM)	UACC-62 (Melanoma)	Bliss excess	-0.0235
COc1nnc2ccc(N3CCC(c4ccc(OCCN5CCN(C)C(=O)[C@H]5C)cc4)CC3)nn12 [AZD5153] + Cc1c2c(nn1C)CSCc1cc(n(C)n1)CSc1cc(c3ccccc3c1)OCCCc1c(C(=O)O)n(C)c3c-2c(Cl)ccc13 [AZD5991] (first compound max 1 µM, 7x7, partner max 1 µM)	UACC-62 (Melanoma)	Bliss excess	0.0084
C=CCn1c(=O)c2cnc(Nc3ccc(N4CCN(C)CC4)cc3)nc2n1-c1cccc(C(C)(C)O)n1 [AZD1775] + C[C@@H]1COCCN1C2=NC(=NC(=C2)C3(CC3)[S@](=N)(=O)C)C4=C5C=CNC5=NC=C4 [AZD6738] (first compound max 1 µM, partner max 10 µM)	UACC-62 (Melanoma)	Bliss excess	0.0163
